protocolDescription: self-splicing fitness, log relative to wild type (ln ratio); higher = more splicing; Tetrahymena group I intron in knt gene, E. coli kanamycin selection, DiMSum; sequences stand for … in CUCUCU…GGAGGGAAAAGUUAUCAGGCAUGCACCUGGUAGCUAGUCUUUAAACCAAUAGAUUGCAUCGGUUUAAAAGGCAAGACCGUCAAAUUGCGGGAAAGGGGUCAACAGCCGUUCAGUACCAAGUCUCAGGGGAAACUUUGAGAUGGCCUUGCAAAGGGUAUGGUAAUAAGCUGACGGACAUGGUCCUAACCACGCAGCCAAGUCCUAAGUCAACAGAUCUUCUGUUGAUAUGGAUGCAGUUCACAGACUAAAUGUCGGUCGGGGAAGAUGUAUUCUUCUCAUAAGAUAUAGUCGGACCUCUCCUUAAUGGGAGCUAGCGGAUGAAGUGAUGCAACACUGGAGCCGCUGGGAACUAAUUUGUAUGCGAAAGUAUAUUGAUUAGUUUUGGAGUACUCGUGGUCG;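 note: selection with 25 µg/mL kanamycin versus none on LB agar overnight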
particulars: 30 °C
Listed here are sequences together with their documented self-splicing fitness (ln).

Solved cases (5 shown):
querySequence	self-splicing fitness (ln)
GGGGAGCAAUAUUACGUACU	-1.58
CGCAAGCAAUAUUACGGCCU	-2.59
CAAUAGCAAUAUUACGCAGG	-1.75
UAGAAGCAAUAUUACGCAUC	-3
GUAAAGCAAUAUUACGUCUG	-1.56

Looking up `GUCGAGCAAUAUUACGUAAC` , I found its self-splicing fitness (ln) recorded as -0.996

Looking up `UUUUAGCAAUAUUACGUUGC` , I found its self-splicing fitness (ln) recorded as -2.8

Looking up `GCUGAGCAAUAUUACGUGAU` , I found its self-splicing fitness (ln) recorded as -1.02

----------
protocolDescription: self-splicing fitness, log relative to wild type (ln ratio); higher = more splicing; Tetrahymena group I intron in knt gene, E. coli kanamycin selection, DiMSum; sequences stand for … in CUCUCU…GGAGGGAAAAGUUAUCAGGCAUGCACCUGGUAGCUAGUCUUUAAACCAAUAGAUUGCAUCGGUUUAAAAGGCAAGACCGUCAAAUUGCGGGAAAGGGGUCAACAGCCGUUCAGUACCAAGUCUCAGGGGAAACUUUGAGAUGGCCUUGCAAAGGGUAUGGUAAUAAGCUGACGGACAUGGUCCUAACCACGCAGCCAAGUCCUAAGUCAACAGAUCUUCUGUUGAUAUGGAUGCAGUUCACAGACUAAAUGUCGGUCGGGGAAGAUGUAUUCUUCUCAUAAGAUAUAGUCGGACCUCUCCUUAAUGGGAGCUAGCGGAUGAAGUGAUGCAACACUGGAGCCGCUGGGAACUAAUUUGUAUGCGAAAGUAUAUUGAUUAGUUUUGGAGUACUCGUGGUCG
particulars: 37 °C
Decide by self-splicing fitness (ln): equal to or exceeding -1 means criterion met, less means criterion not met.

Solved entries (count: 3):
querySequence	classAssignment
UUCUAGCAAUAUUACGGUGA	criterion met
AACUAGCAAUAUUACGAGCG	criterion met
GAUCAGCAAUAUUACGGGUU	criterion not met

API: the following record is the query input.
Input line: In plain terms: is recorded self-splicing fitness (ln) at least -1 for `CUAUAGCAAUAUUACGACGA` ?
Output line: criterion met

----------
protocolDescription: self-splicing fitness, log relative to wild type (ln ratio); higher = more splicing; Tetrahymena group I intron in knt gene, E. coli kanamycin selection, DiMSum; sequences stand for … in CUCUCU…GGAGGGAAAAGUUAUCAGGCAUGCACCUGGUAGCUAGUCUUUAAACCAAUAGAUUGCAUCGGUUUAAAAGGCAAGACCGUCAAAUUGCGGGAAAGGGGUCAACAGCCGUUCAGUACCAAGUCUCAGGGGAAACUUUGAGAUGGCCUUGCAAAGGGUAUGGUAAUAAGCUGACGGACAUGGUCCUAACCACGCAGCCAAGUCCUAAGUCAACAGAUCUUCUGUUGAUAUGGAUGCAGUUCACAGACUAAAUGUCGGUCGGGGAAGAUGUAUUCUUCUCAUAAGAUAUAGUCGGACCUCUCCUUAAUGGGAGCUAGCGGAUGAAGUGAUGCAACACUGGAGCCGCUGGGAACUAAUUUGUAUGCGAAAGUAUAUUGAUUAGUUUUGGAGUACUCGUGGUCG
particulars: 30 °C
Decide by self-splicing fitness (ln): equal to or exceeding -2 means Condition met, less means Condition not met.

querySequence	classAssignment
AAGUAGCAAUAUUACGUCUA	Condition met

Input line: In plain terms: is recorded self-splicing fitness (ln) at least -2 for `GACGAGCAAUAUUACGGCGG` ?
Output line: Condition not met

Input line: In plain terms: is recorded self-splicing fitness (ln) at least -2 for `GAUCAGCAAUAUUACGCUAC` ?
Output line: Condition not met

Input line: In plain terms: is recorded self-splicing fitness (ln) at least -2 for `UGAGAGCAAUAUUACGGCCG` ?
Output line: Condition not met

Input line: In plain terms: is recorded self-splicing fitness (ln) at least -2 for `GCCUAGCAAUAUUACGAGCU` ?
Output line: Condition met

Input line: In plain terms: is recorded self-splicing fitness (ln) at least -2 for `GGAUAGCAAUAUUACGUACG` ?
Output line: Condition met

Input line: In plain terms: is recorded self-splicing fitness (ln) at least -2 for `UUGCAGCAAUAUUACGUGAC` ?
Output line: Condition met

Input line: In plain terms: is recorded self-splicing fitness (ln) at least -2 for `AACAAGCAAUAUUACGGACC` ?
Output line: Condition met

Input line: In plain terms: is recorded self-splicing fitness (ln) at least -2 for `UCGCAGCAAUAUUACGACAC` ?
Output line: Condition met

Input line: In plain terms: is recorded self-splicing fitness (ln) at least -2 for `AUGGAGCAAUAUUACGUGAA` ?
Output line: Condition not met

Input line: In plain terms: is recorded self-splicing fitness (ln) at least -2 for `AAUCAGCAAUAUUACGUCAA` ?
Output line: Condition met

Input line: In plain terms: is recorded self-splicing fitness (ln) at least -2 for `CGACAGCAAUAUUACGCGGU` ?
Output line: Condition not met

Input line: In plain terms: is recorded self-splicing fitness (ln) at least -2 for `CCUGAGCAAUAUUACGAGAG` ?
Output line: Condition not met

Input line: In plain terms: is recorded self-splicing fitness (ln) at least -2 for `CCGGAGCAAUAUUACGUCGG` ?
Output line: Condition not met

Input line: In plain terms: is recorded self-splicing fitness (ln) at least -2 for `UGGAAGCAAUAUUACGACAC` ?
Output line: Condition not met

Input line: In plain terms: is recorded self-splicing fitness (ln) at least -2 for `GCGCAGCAAUAUUACGGUAU` ?
Output line: Condition met

Input line: In plain terms: is recorded self-splicing fitness (ln) at least -2 for `GGGGAGCAAUAUUACGCUCA` ?
Output line: Condition met

Input line: In plain terms: is recorded self-splicing fitness (ln) at least -2 for `CUGUAGCAAUAUUACGUCCG` ?
Output line: Condition met

Input line: In plain terms: is recorded self-splicing fitness (ln) at least -2 for `CAUUAGCAAUAUUACGUCGA` ?
Output line: Condition not met

Input line: In plain terms: is recorded self-splicing fitness (ln) at least -2 for `CGACAGCAAUAUUACGAACC` ?
Output line: Condition not met

Input line: In plain terms: is recorded self-splicing fitness (ln) at least -2 for `UUUCAGCAAUAUUACGUGCU` ?
Output line: Condition not met

Input line: In plain terms: is recorded self-splicing fitness (ln) at least -2 for `GCUCAGCAAUAUUACGGGGC` ?
Output line: Condition not met

Input line: In plain terms: is recorded self-splicing fitness (ln) at least -2 for `AUCGAGCAAUAUUACGAUGC` ?
Output line: Condition not met

Input line: In plain terms: is recorded self-splicing fitness (ln) at least -2 for `AUCCAGCAAUAUUACGGUAG` ?
Output line: Condition not met

Input line: In plain terms: is recorded self-splicing fitness (ln) at least -2 for `UAUUAGCAAUAUUACGCUCC` ?
Output line: Condition not met

Input line: In plain terms: is recorded self-splicing fitness (ln) at least -2 for `UCUAAGCAAUAUUACGCAGC` ?
Output line: Condition met

Input line: In plain terms: is recorded self-splicing fitness (ln) at least -2 for `AAUAAGCAAUAUUACGUAAG` ?
Output line: Condition not met

Input line: In plain terms: is recorded self-splicing fitness (ln) at least -2 for `UAUUAGCAAUAUUACGCAGC` ?
Output line: Condition not met
